- assayed.target: Cannabinoid receptor 1 (Homo sapiens)
- Sequence (P21554 whole entry): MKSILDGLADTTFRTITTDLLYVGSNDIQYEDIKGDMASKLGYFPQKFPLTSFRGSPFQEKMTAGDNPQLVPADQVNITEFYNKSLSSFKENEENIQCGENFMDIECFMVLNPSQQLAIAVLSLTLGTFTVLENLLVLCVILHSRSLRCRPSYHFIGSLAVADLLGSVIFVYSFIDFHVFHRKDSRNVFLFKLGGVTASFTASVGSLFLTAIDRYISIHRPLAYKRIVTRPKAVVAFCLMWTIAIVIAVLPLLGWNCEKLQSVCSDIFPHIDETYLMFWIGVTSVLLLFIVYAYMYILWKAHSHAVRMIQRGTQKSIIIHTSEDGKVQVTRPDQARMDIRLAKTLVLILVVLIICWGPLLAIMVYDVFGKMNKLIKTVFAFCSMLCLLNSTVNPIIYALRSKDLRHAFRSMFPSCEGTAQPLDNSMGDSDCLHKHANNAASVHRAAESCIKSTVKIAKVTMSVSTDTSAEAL
- protocol.details: Antagonist activity at human brain CB1 receptor by calcium mobilization assay
- Assay type: functional
- stated.conditions: read-out: pA2 (converted)
Recorded Kb values for a group of molecules are listed next.

structure.string	Kb
Cc1c(C(=O)NCCCCCCCCCNCCCCCCCCCNC(=O)c2nn(-c3ccc(Cl)cc3Cl)c(-c3ccc(Cl)cc3)c2C)nn(-c2ccc(Cl)cc2Cl)c1-c1ccc(Cl)cc1	17.4 nM
Cc1c(C(=O)NCCCCCNCCCCCN)nn(-c2ccc(Cl)cc2Cl)c1-c1ccc(Cl)cc1	759 nM
Cc1c(C(=O)NCCCCCCCCCN(C)CCCCCCCCCNC(=O)c2nn(-c3ccc(Cl)cc3Cl)c(-c3ccc(Cl)cc3)c2C)nn(-c2ccc(Cl)cc2Cl)c1-c1ccc(Cl)cc1	29.5 nM
Cc1c(C(=O)NCCCCCN(C)CCCCCN)nn(-c2ccc(Cl)cc2Cl)c1-c1ccc(Cl)cc1	309 nM
